Biological target: T1, His-tagged P3028 peptide (PGE73) (human)
T1 construct: also called His-tag-P3028; not shown: His-tag
T1 peptide: VFDEFKPLVEEPQNLIK
Test: PEPSCAN ELISA; peptide on card, His-tagged P3028 in solution;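 further: bound protein detected by peroxidase colour with ABTS substrate, imaged on the peptide card by CCD camera at 405 nm, rampo units being raw OD405 readings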
quantity: RAMPO Score
Quote the value and follow it with the unit of measurement.

Recorded RAMPO Score, per entry:
binder: KKLDTFFVKESLFTER (P28R variant on PEPSCAN card) [SEQ ID NO: 582]
RAMPO Score: 81 rampo units
--
binder: CKLDTFFVKLSLFTER (P28R variant on PEPSCAN card) [SEQ ID NO: 546]
RAMPO Score: 215 rampo units
--
binder: KKLDTFFVKLSLFTEA (P28R variant on PEPSCAN card) [SEQ ID NO: 538]
RAMPO Score: 226 rampo units
--
binder: KKLDTFFVKLSLFTGR (P28R variant on PEPSCAN card) [SEQ ID NO: 101]
RAMPO Score: 233 rampo units
--
binder: KKLDTFFVYLSLFTER (P28R variant on PEPSCAN card) [SEQ ID NO: 552]
RAMPO Score: 198 rampo units
--
binder: KKLDTDFVKLSLFTER (P28R variant on PEPSCAN card) [SEQ ID NO: 553]
RAMPO Score: 193 rampo units

Here is the next item to consider.
Ask: Using the record for KKLDTFFVFLSLFTER (P28R variant on PEPSCAN card) [SEQ ID NO: 560] , state its measured RAMPO Score.
Reply: 174 rampo units
